Molecular target: M3
Experiment: ELISA on coated antigen, column M3
OBSERVABLE: absorbance at 490 nm
Give the figure only, with no unit attached.

Determine its reported absorbance at 490 nm: PDL1-31B7 (antibody, V domains shown, Only FR/CDR pieces are tied to the clone) VH: QVQLVESGAEVKKPGSSVKVSCKASGGTFSSYAISWVRQAPGQGLEWMGRIIPILGIANYAQKFQGRVTITADKSTSTAYMELSSLRSEDTAVYYCARASSGYSVGAFDIWGQGTMVTVSS VL: QLVLTQPPSVSAPPGQKVTISCSGSSSNIGNNYVSWYQQLPGTAPKLLIYDNNERPSGIPDRFSASKSGTSATLGISGLQTGDEADYYCGTWDSSLSAGVFGGGTKLTVL
1.1

Determine its reported absorbance at 490 nm: PDL1-23E10 (scFv, V domains shown) VH: QMQLVESGAEVKKPGSSVKVSCKVSGENFRSHAISWVRQAPGQGLEWMGRIIPIVGLADYPQKFQGRVTISADESTGTAYMDLSSLRSEDTAVYYCVTGRPPWHWGQGILITVSS VL: QLVLTQPPSVSGAPGQRVTISCTGSSSNIGAGYDVHWYQQLPGTAPKLLIYSNRNRPSGVPDRFSGSKSGTSASLAITGLQAEDEADYYCQSYDSSLSGPNYVFGTGTKVTVL
0.7
